Test system: NCI-H460 lung
Experimental Protocol: NCI-60 one-dose screen, 48 h
Condition Summary: 10 µM unless noted
This is part of a sample that, as a whole, favours compounds with a hit. Of some 83,000 tested, about 20% had one in any assay. Calls of active or inactive are those of the source. The calls were made as follows: active = growth percent below 10; inactive = the rest.
Write down one outcome, taken from YES for active, NO for inactive

[Q] Outcome? `Cc1ccc(-n2c(-c3ccccc3)c(-c3ccccc3)c3c(SCC(=O)n4[nH]c(N)cc4=O)ncnc32)cc1`
[A] NO

[Q] What would you report for `O=[N+]([O-])c1ccc(OCCO)cc1` ?
[A] NO

[Q] Moving on to the next compound: `CC/C=C\C[C@H](O)C/C=C1/C(=O)C=C[C@@H]1C/C=C\CCCCO`
[A] YES

[Q] Can you check `CCc1ccccc1-n1c(-c2ccc(Cl)cc2)cc(-c2ccc(OC)cc2)c(C#N)c1=O` next?
[A] NO

[Q] Moving on to the next compound: `COC(=O)[C@]12CC[C@@H](C)[C@H](C)[C@@H]1C1=CC[C@@H]3[C@@]4(C)C(C=O)=C[C@@](C)(COC(C)=O)C4=CC[C@@]3(C)[C@]1(C)CC2`
[A] YES

[Q] Another compound to look at: CCC1(C2CCCC2)NC(=O)NC1=O (stereo not given)
[A] NO

[Q] `Cc1nc2ccccc2c(/C=C/c2ccc(Cl)cc2)c1C(=O)/C=C/c1ccc(F)cc1` ?
[A] YES

[Q] Consider next the compound `COc1ccc2c(c1)CCCN2c1c2ccccc2nc2ccccc12` in the same way.
[A] YES

[Q] Then this compound: `CCOC(=O)c1c2ncccc2n2c(=O)n(-c3ccccc3C)nnc12`
[A] NO

[Q] Okay, and COCCc1ccc(OCC(O)CNC(C)C)cc1 (stereo not given) ?
[A] NO
